Data origin, for the record: ChEMBL document CHEMBL1130518

Overview of reported Ratio across a group of molecules:
Test: Ratio of compound to that of glucocorticoid receptor binding and progesterone receptor binding was determined

| Molecule | Ratio |
| --- | --- |
| CN(C)c1ccc([C@H]2C[C@@]3(C)C(CC[C@@]3(O)C#Cc3ccccc3)C3CCC4=CC(=O)CCC4=C32)cc1 (some centres not stated) | 6 |
| CN(C)c1ccc([C@H]2C[C@@]3(C)C(CC[C@@]3(O)C#Cc3ccc(S(C)(=O)=O)cc3)C3CCC4=CC(=O)CCC4=C32)cc1 (some centres not stated) | 44 |
| C[C@]12C[C@H](c3ccc4c(c3)OCO4)C3=C4CCC(=O)C=C4CCC3C1CC[C@@]2(O)C#Cc1ccc(S(C)(=O)=O)cc1 (some centres not stated) | 488 |
| C[C@]12C[C@H](c3ccc4c(c3)OCCO4)C3=C4CCC(=O)C=C4CCC3C1CC[C@@]2(O)C#Cc1ccc(N2CCCC2=O)cc1 (some centres not stated) | 490 |
| CN(C)c1ccc(/C=C/[C@]2(O)CCC3C4CCC5=CC(=O)CCC5=C4[C@@H](c4ccc(N(C)C)cc4)C[C@@]32C)cc1 (some centres not stated) | 1 |
| CC#C[C@]1(O)CC[C@H]2[C@@H]3CCC4=CC(=O)CCC4=C3[C@@H](c3ccc(N(C)C)cc3)C[C@@]21C | 5.4 |
| CN(C)c1ccc(C#C[C@]2(O)CCC3C4CCC5=CC(=O)CCC5=C4[C@@H](c4ccc(N(C)C)cc4)C[C@@]32C)cc1 (some centres not stated) | 49 |
